test: folding enthalpy; higher = less favourable; fluorescence melt of hairpins on a sequencing array, two-state fit; conditions: sodium 0.088 M
QUANTITY MEASURED: folding enthalpy

Guide cases for folding enthalpy, answers given:
>  <SEQUENCE STRING>
GTGCGCGAAAGCGAGCAC ((((((....)))..)))

>  <folding enthalpy>
-25.5 kcal/mol

$$$$
>  <SEQUENCE STRING>
GATCGAGTATTCGATC ((((((....))))))

>  <folding enthalpy>
-40 kcal/mol

$$$$
>  <SEQUENCE STRING>
GATCTCTGAGAGATC ((((((...))))))

>  <folding enthalpy>
-32.5 kcal/mol

$$$$

Query: Using the record for GTCCGCGAAAGCGTTGAC ((((((....)))..))) , report its folding enthalpy.
Reply: -14.4 kcal/mol

---

assay: melting temperature; fluorescence melt of hairpins on a sequencing array, two-state fit, raised by 9.35 °C to match UV melts; settings: sodium 0.088 M
Can you tell me Tm for the items I'm about to list?
One number for each entry, in °C.

Completed entries (count: 3):
>  <SEQUENCE STRING>
GCTGGGCGAAAGCCTCGC ((..(((....)))..))

>  <UNIT ABBREVIATION>
°C

>  <Tm>
44.6

$$$$
>  <SEQUENCE STRING>
GATCCAGCATGGATC ((((((...))))))

>  <UNIT ABBREVIATION>
°C

>  <Tm>
61.1

$$$$
>  <SEQUENCE STRING>
GACGGAGGAAACTCTGTC (((.(((....))).)))

>  <UNIT ABBREVIATION>
°C

>  <Tm>
48

$$$$

For every item in the list below, what is its measured Tm?
1. GCCCGGCGAAAGCATGGC (((..((....))..)))
2. GTGTAGACGAAAGTCCAC (((..(((....))))))

Reply:
1: 56; 2: 42.8

---

test: folding enthalpy; higher = less favourable; fluorescence melt of hairpins on a sequencing array, two-state fit; settings: sodium 0.088 M
Parameter threshold = -20 kcal/mol. Response is true when folding enthalpy meets or exceeds it, else false.

A selection of reference data follows.
>  <SEQUENCE STRING>
GGATCCCGAAAGGGGTCC (((.(((....))).)))

>  <ASSIGNED CLASS>
false

$$$$
>  <SEQUENCE STRING>
GCCTCTGGAAACAGAAGC ((.((((....)))).))

>  <ASSIGNED CLASS>
false

$$$$
>  <SEQUENCE STRING>
GCGGTGCCGAAAGGCCGC (((..(((....))))))

>  <ASSIGNED CLASS>
true

$$$$
>  <SEQUENCE STRING>
GCGTTGGGAAACTGACGC ((((..(....)..))))

>  <ASSIGNED CLASS>
false

$$$$
>  <SEQUENCE STRING>
GATCTGGGCCAGATC ((((((...))))))

>  <ASSIGNED CLASS>
false

$$$$

Query: Decide: folding enthalpy of GCTACCCGAAAGGGAGC (((.(((....)))))) >= -20 kcal/mol?
Reply: false

Query: Decide: is the reported value of folding enthalpy for GCTGCAGGAAACCGCAAC (.(((.(....).))).) equal to or greater than -20 kcal/mol?
Reply: true

Query: Check this sequence for folding enthalpy at or above -20 kcal/mol: GATCTCGTATGAGATC ((((((....))))))
Reply: false
